- assayedTarget: p38alpha (Homo sapiens)
- Construct: purchased Invitrogen PV3304
- Sequence (Q16539 whole entry): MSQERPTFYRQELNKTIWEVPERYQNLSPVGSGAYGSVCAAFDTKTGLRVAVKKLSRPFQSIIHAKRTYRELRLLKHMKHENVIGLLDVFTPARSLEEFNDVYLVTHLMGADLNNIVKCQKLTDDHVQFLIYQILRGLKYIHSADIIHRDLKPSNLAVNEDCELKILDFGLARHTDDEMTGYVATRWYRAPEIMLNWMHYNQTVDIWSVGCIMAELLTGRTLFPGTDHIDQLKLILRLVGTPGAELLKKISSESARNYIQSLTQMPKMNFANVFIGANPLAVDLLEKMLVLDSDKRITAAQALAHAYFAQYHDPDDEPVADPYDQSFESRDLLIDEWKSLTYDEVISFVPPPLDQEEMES
- testDescription: P38alpha Enzyme Inhibition Assay (Alphascreen kinase activity assay)
- Type: biochemical
- conditionInfo: 100 pM p38alpha, ATF-2 fusion protein substrate, 250 μM ATP, 2 hours preincubation at 25° C.; read-out: p38α inhibition
- Protocol: P38alpha Enzyme Inhibition Assay The inhibitory activity of compounds was determined using an Alphascreen® (Perkin Elmer) based kinase activity assay. […] Detection was performed by measuring luminescence following the addition of Alphascreen Donor beads (Perkin Elmer 6765300) and Protein A Alphascreen Acceptor beads (Perkin Elmer 6760137), both at a final concentration of 20 ug/ml. IC50 values were determined from concentration-response curves.
IC50 values for the compounds below.

Before answering, review these 2 worked examples.
>>> print(df.to_string())
                                   compound  observedproperty   result
0  CC(C)c1nnc2ccc(O[C@H]3CC[C@H](NC(=O)Nc4cc(C(C)(C)C)nn4-c4ccc(O)c(Cl)c4)c4ccccc43)cn12 [Example 25]              IC50  < 10 nM
1  Cc1ccc(-n2nc(C(C)(C)C)cc2NC(=O)N[C@@H]2C[C@@H](Sc3ccc4nnc(C(C)C)n4c3)c3ccccc32)cc1 (racemic) [Example 3]              IC50  < 10 nM

Now consider the entry below.
[ask] Which IC50 reading was recorded for the compound CC(C)c1nnc2ccc(O[C@H]3CC[C@H](NC(=O)Nc4cc(C(C)(C)C)nn4-c4ccc(Cl)c(O)c4)c4ccccc43)cn12 [Example 27] ?
[reply] < 10 nM
